TARGET_ENTITY: Ubiquitin carboxyl-terminal hydrolase 7 (Homo sapiens)
ASSAY: blocks human USP7 ubiquitin-rhodamine cleavage (AID 1645854)
ASSAY_CONDITIONS: purified USP7, Ub-rhodamine cleavage fluorescence; at 20 µM; hits give high values
Out of some 47,000 compounds screened, about 140 (0.3%) were called active. The full list was thinned out, with actives kept by preference.
ASSAY_ENDPOINT: inhibition (%)

COMPOUND: Cc1cccc(S(=O)(=O)N(CC(=O)N(C)Cc2ccccc2)Cc2ccccc2)c1
ASSAY_ENDPOINT: inhibition
RECORDED_MEASUREMENT: -0.03

COMPOUND: O=C(NCC1CC1)c1ccc2ccc(N3CCN(c4ncccn4)CC3)n2c1
ASSAY_ENDPOINT: inhibition
RECORDED_MEASUREMENT: -17.3

COMPOUND: CC1CCc2c(sc3[nH]c(=O)c(C(=O)Nc4ccc(C(N)=O)cc4)c(O)c23)C1 (stereo not given)
ASSAY_ENDPOINT: inhibition
RECORDED_MEASUREMENT: 2.02

COMPOUND: COC1=C(OC)C(=O)C(C)=C(C)C1=O
ASSAY_ENDPOINT: inhibition
RECORDED_MEASUREMENT: 3.62

COMPOUND: O=C(COc1ccccc1-c1nnc(-c2ccccc2)o1)Nc1cc(F)ccc1F
ASSAY_ENDPOINT: inhibition
RECORDED_MEASUREMENT: 5.06

COMPOUND: CCS(=O)(=O)c1cccc(C(=O)Nc2c(C(N)=O)oc3ccccc23)c1
ASSAY_ENDPOINT: inhibition
RECORDED_MEASUREMENT: 1.8

COMPOUND: COc1cc2c(c(OC)c1OC)-c1ccc(N3CCN(Cc4ccccc4)CC3)c(=O)cc1[C@@H](NC(C)=O)CC2
ASSAY_ENDPOINT: inhibition
RECORDED_MEASUREMENT: -1.92

COMPOUND: COC(=O)c1ccccc1NC(=O)c1nc(-c2ccccc2)oc1C
ASSAY_ENDPOINT: inhibition
RECORDED_MEASUREMENT: -0.0638

COMPOUND: Cc1cnc(C2COCCN2C(=O)c2c(C(C)C)noc2C)[nH]1 (stereo not given)
ASSAY_ENDPOINT: inhibition
RECORDED_MEASUREMENT: 4.99

COMPOUND: CCOC(=O)c1noc2nc(C)n(Cc3nc(-c4ccccc4)oc3C)c(=O)c12
ASSAY_ENDPOINT: inhibition
RECORDED_MEASUREMENT: 1.79

###

TARGET_ENTITY: Ubiquitin carboxyl-terminal hydrolase 7 (Homo sapiens)
ASSAY: blocks human USP7 ubiquitin-rhodamine cleavage (AID 1645854)
ASSAY_CONDITIONS: purified USP7, Ub-rhodamine cleavage fluorescence; at 20 µM; hits give high values
About 140 (0.3%) of roughly 47,000 compounds were called active. This excerpt belongs to a sample that is enriched for actives.
ASSAY_ENDPOINT: inhibition (%)

COMPOUND: CCc1cc(C(=O)NC2CC(C)(C)Cc3nc(N4CCCC4)ncc32)no1 (stereo not given)
TARGET_ENTITY: Ubiquitin carboxyl-terminal hydrolase 7 (Homo sapiens)
RECORDED_MEASUREMENT: -17.3
--
COMPOUND: CCc1ccc(-n2nnc(C(=O)Nc3nnc(CC)s3)c2C)cc1
TARGET_ENTITY: Ubiquitin carboxyl-terminal hydrolase 7 (Homo sapiens)
RECORDED_MEASUREMENT: 0.00527
--
COMPOUND: CCc1ccc(-n2c(=O)c3ccccc3n(CC(=O)NCCC3=CCCCC3)c2=O)cc1
TARGET_ENTITY: Ubiquitin carboxyl-terminal hydrolase 7 (Homo sapiens)
RECORDED_MEASUREMENT: 8.71
--
COMPOUND: CCOC(=O)C1(C)C=C(Nc2ccc(C(=O)O)c(O)c2)C(=O)N1c1ccccc1 (stereo not given)
TARGET_ENTITY: Ubiquitin carboxyl-terminal hydrolase 7 (Homo sapiens)
RECORDED_MEASUREMENT: -4.45
--
COMPOUND: Cc1nn(Cc2ccccc2)c(C)c1C(=O)NS(=O)(=O)c1ccccc1Cl
TARGET_ENTITY: Ubiquitin carboxyl-terminal hydrolase 7 (Homo sapiens)
RECORDED_MEASUREMENT: 1.27
--
COMPOUND: Cc1ccc(-c2nc(Cn3nnc(C(=O)O)c3C)c(C)o2)cc1
TARGET_ENTITY: Ubiquitin carboxyl-terminal hydrolase 7 (Homo sapiens)
RECORDED_MEASUREMENT: 1.5
--
COMPOUND: COc1cc2c(cc1OC)-c1cc(NCc3ccccc3)nc(=O)n1CC2
TARGET_ENTITY: Ubiquitin carboxyl-terminal hydrolase 7 (Homo sapiens)
RECORDED_MEASUREMENT: -10.1
--
COMPOUND: CC(C)CN1[C@H]2CCN(C(=O)c3cccn3C)CC[C@@H]2Oc2ccccc2S1(=O)=O
TARGET_ENTITY: Ubiquitin carboxyl-terminal hydrolase 7 (Homo sapiens)
RECORDED_MEASUREMENT: -3.56
--
COMPOUND: NC(=O)c1c(NC(=O)c2ccccc2Oc2ccccc2)sc2c1CCN(Cc1ccccc1)C2
TARGET_ENTITY: Ubiquitin carboxyl-terminal hydrolase 7 (Homo sapiens)
RECORDED_MEASUREMENT: -143
--
COMPOUND: COc1ccc(C2C3CCCCC3(O)CCN2C(=O)/C=C/c2cc(OC)c(OC)c(OC)c2)c(OC)c1 (stereo not given)
TARGET_ENTITY: Ubiquitin carboxyl-terminal hydrolase 7 (Homo sapiens)
RECORDED_MEASUREMENT: 2.72
